Cited source: patent US20230348426A1

Target: UniProt P21462
Assay: FPR1 cyclic adenosine monophosphate (cAMP) assay
Settings: CHO cells overexpressing human FPR1; forskolin 10 µM; inhibition of cAMP production; read-out: hFPR1 cAMP EC50
Protocol: N-formyl peptide receptors (FPRs) are a family of chemo attractant receptors that facilitate leukocyte response during inflammation. FPRs belong to the seven-transmembrane G protein-coupled receptor superfamily and are linked to inhibitory G-proteins (Gi). […] FPR2 and FPR1 Cyclic Adenosine Monophosphate (cAMP) Assays. […] The level of intracellular cAMP was determined using the HTRF HiRange cAMP assay reagent kit (Cisbio) according to manufacturer’s instruction. […]
pEC50: −log10 of the molar value.
Endpoint name: pEC50

P = COc1cc(F)c([C@@H]2CN(c3nc(N(C)C(C)=O)ccc3F)C(=O)[C@H]2NC(=O)c2ccc(OC(F)F)cc2)c(F)c1
Q = COc1cc(F)c([C@@H]2CN(c3cncn(CC4CCOCC4)c3=O)C(=O)[C@H]2NC(=O)c2ccc(Cl)cc2)c(F)c1
R = COc1cc(F)c([C@@H]2CN(c3ccnc(N4C[C@@H](C)N(C)[C@@H](C)C4)c3C(F)(F)F)C(=O)[C@H]2NC(=O)c2ccc(OC(F)F)cc2)c(F)c1
Prompt: Take the compounds listed above and rank them by pEC50; the top slot goes to the highest value. Give the order by naming the labels one after another as requested.
Completion: P, R, Q

###

Molecular target: human FPR1 (Homo sapiens (Human), UniProt P21462)
Sequence (P21462 whole entry): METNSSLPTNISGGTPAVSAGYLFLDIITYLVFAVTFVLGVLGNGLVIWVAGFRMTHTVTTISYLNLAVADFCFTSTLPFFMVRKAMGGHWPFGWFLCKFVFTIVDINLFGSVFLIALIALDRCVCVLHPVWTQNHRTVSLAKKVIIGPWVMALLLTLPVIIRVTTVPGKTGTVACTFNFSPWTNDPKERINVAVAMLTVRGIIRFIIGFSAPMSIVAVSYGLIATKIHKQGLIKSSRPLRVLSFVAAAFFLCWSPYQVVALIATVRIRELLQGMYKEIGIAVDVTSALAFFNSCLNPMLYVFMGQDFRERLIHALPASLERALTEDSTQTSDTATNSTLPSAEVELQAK
Assay: FPR1 cyclic adenosine monophosphate (cAMP) assay
Type: cell-based
Details: CHO cells overexpressing human FPR1; forskolin 10 µM; inhibition of cAMP production; read-out: hFPR1 cAMP EC50
pEC50: −log10 of the molar value.
Endpoint name: pEC50

[[record]]
compound = "COc1cc(F)c([C@@H]2CN(c3c(C)ccn(CCS(C)(=O)=O)c3=O)C(=O)[C@H]2NC(=O)c2ccc(OC(F)(F)F)cc2)c(F)c1 [Example 469]"
system_name = "human FPR1 (Homo sapiens (Human), UniProt P21462)"
endpoint_name = "pEC50"
obs_value = 8.70

[[record]]
compound = "COCC(CO)n1cccc(N2C[C@@H](c3ccc(OC)cc3)[C@H](NC(=O)c3ccc(OC(F)F)cc3)C2=O)c1=O (stereo partly drawn) [Example 315]"
system_name = "human FPR1 (Homo sapiens (Human), UniProt P21462)"
endpoint_name = "pEC50"
obs_value = 8.02

[[record]]
compound = "COc1cc(F)c([C@@H]2CN(c3ccn(CC(F)F)n3)C(=O)[C@H]2NC(=O)c2ccc(OC(F)F)cc2)c(F)c1"
system_name = "human FPR1 (Homo sapiens (Human), UniProt P21462)"
endpoint_name = "pEC50"
obs_value = 6.96


A = COc1cc(F)c([C@@H]2CN(c3cnn4c3OCCC4)C(=O)[C@H]2NC(=O)c2ccc(OC(F)(F)F)cc2)c(F)c1
B = COCC(CN)n1cccc(N2C[C@@H](c3c(F)cc(OC)cc3F)[C@H](NC(=O)c3ccc(OC(F)(F)F)cc3)C2=O)c1=O (stereo partly drawn) [Example 78]
Prompt: Which entry shows the lesser value of pEC50 here, A or B ? # respond with the chosen item's label
Completion: A

###

Target: human FPR1 (Homo sapiens (Human))
Assay: FPR1 cyclic adenosine monophosphate (cAMP) assay
Settings: CHO cells overexpressing human FPR1; forskolin 10 µM; inhibition of cAMP production; read-out: hFPR1 cAMP EC50
Endpoint name: EC50 (nM)

Known results for compounds:
[[record]]
compound = "COc1cc(F)c([C@@H]2CN(c3cccn(CC4CC(F)(F)C4)c3=O)C(=O)[C@H]2NC(=O)c2ccc(OC(F)F)cc2)c(F)c1"
endpoint_name = "EC50"
obs_value = 46

[[record]]
compound = "CCn1nccc(N2C[C@@H](c3ccc(OC)cc3)[C@H](NC(=O)c3ccc(OC(F)F)cc3)C2=O)c1=O"
endpoint_name = "EC50"
obs_value = 23


A = COc1ccc([C@@H]2CN(c3c(C)ccn(CC(F)F)c3=O)C(=O)[C@H]2NC(=O)c2ccc(OC(F)F)cc2)cc1
B = COCCn1cccc(N2C[C@@H](c3c(F)cc(OC)cc3F)[C@H](NC(=O)c3ccc(OC(F)F)cc3)C2=O)c1=O [Example 36]
Prompt: I'd appreciate it if you could identify which of A and B has the greater EC50. # respond with the chosen item's label
Completion: B

P = COc1cc(F)c([C@@H]2CN(c3cccn(CCN4CC5(COC5)C4)c3=O)C(=O)[C@H]2NC(=O)c2ccc(OC(F)(F)F)cc2)c(F)c1
Q = Cc1ccn(CC2CC2)c(=O)c1N1C[C@@H](c2ccc(Cl)cc2)[C@H](NC(=O)c2ccc(OC(F)F)cc2)C1=O
R = COc1cc(F)c([C@@H]2CN(c3c(C)ccn(CCO)c3=O)C(=O)[C@H]2NC(=O)c2ccc(OC(F)F)cc2)c(F)c1
S = COCCn1cccc(N2C(=O)[C@@H](NC(=O)c3ccc(OC(F)(F)F)cc3)[C@H](c3c(F)cc(OC)cc3F)[C@H]2C)c1=O
Prompt: Rank order required: EC50, descending. Give the order by naming the labels one after another as requested.
Completion: S, P, R, Q

P = COc1cc(F)c([C@@H]2CN(c3c(C)ccn(C(F)(F)CO)c3=O)C(=O)[C@H]2NC(=O)c2ccc(OC(F)(F)F)cc2)c(F)c1 [Example 659]
Q = COc1cc(F)c([C@@H]2CN(c3c(C)ccn(CC(O)C(F)(F)F)c3=O)C(=O)[C@H]2NC(=O)c2ccc(OC(F)F)cc2)c(F)c1 (stereo partly shown) [Example 634]
R = COc1cc(F)c([C@@H]2CN(c3c(C)ccn(CC4CNC(=O)O4)c3=O)C(=O)[C@H]2NC(=O)c2ccc(OC(F)F)cc2)c(F)c1 (stereo partly shown) [Example 619]
S = COCCn1cc(C)c(C)c(N2C[C@@H](c3c(F)cc(OC)cc3F)C(NC(=O)c3ccc(Cl)cc3)C2=O)c1=O (stereo partly shown) [Example 640]
Prompt: Provide the items ranked by increasing EC50. Give the order by naming the labels one after another as requested.
Completion: P, Q, R, S
(P: 1.3 nM, Q: 2.3 nM, R: 64 nM, S: 1200 nM)
